target: T1, Gly-Gly-Gly-COOH
T1 chain: GGG
value type: Km, GGG (uM); with LAETG peptide (µM)
Form entry: value (µM) — number only.

eSrtA(2A-5) (protein) QAKPQIPKDKSKVAGYIEIPDADIKEPVYPGPATREQLNHGVSFHEENESLDDQNISIAGHTFIDRPNYQFTNLKAAKIGSMVYFKVGNETRKYKMTSIRNVRPTAVEVLDEQKGKDKQLTLVTCDDYNEETGVWETRKIFVATEVK
2810

*Q* # Km, GGG (uM); with LAETG peptide lookup, item 2A.6C (protein) QAKPQIPKDKSKVAGYIEIPDADIKEPVYPGPATREQLNRGVSFHEENESLDDQNISIAGHTFIDRPNYQFTNLKAAKPGSMVYFKVGNETRIYKMTSIRKVRPTAVEVLDEQKGKDKQLTLVTCDDYNEETGVWETRKIFVATEVK
*A* 642

*Q* Quick check: Km, GGG (uM); with LAETG peptide of 2A.6B (protein) QAKPQIPKDKSKVAGYIEIPDADIKEPVYPGPATREQLNKGVSFHEENESLDDQNISIAGHTFIDRPNYQFTNLKAAKVGSMVYFKVGNETRKYKMTSIRKVRPTAVEVLDEQKGKDKQLTLVTCDDYNEETGVWETRKIFVATEVK ?
*A* 642

*Q* What measured Km, GGG (uM); with LAETG peptide goes with eSrtA(2A-6) (protein) QAKPQIPKDKSKVAGYIEIPDADIKEPVYPGPATREQLNRGVSFHEENESLDDQNISIAGHTFIDRPNYQFTNLKAAKVGSMVYFKVGNETRKYKMTSIRNVRPTAVEVLDEQKGKDKQLTLVTCDDYNEETGVWETRKIFVATEVK ?
*A* 1040
